Hello, the source for this data is paper PMC6109596, in case you need it.

- TGT: ABCB1 (P-glycoprotein/MDR1) (Homo sapiens, UniProt P08183)
- Sequence (P08183 whole entry): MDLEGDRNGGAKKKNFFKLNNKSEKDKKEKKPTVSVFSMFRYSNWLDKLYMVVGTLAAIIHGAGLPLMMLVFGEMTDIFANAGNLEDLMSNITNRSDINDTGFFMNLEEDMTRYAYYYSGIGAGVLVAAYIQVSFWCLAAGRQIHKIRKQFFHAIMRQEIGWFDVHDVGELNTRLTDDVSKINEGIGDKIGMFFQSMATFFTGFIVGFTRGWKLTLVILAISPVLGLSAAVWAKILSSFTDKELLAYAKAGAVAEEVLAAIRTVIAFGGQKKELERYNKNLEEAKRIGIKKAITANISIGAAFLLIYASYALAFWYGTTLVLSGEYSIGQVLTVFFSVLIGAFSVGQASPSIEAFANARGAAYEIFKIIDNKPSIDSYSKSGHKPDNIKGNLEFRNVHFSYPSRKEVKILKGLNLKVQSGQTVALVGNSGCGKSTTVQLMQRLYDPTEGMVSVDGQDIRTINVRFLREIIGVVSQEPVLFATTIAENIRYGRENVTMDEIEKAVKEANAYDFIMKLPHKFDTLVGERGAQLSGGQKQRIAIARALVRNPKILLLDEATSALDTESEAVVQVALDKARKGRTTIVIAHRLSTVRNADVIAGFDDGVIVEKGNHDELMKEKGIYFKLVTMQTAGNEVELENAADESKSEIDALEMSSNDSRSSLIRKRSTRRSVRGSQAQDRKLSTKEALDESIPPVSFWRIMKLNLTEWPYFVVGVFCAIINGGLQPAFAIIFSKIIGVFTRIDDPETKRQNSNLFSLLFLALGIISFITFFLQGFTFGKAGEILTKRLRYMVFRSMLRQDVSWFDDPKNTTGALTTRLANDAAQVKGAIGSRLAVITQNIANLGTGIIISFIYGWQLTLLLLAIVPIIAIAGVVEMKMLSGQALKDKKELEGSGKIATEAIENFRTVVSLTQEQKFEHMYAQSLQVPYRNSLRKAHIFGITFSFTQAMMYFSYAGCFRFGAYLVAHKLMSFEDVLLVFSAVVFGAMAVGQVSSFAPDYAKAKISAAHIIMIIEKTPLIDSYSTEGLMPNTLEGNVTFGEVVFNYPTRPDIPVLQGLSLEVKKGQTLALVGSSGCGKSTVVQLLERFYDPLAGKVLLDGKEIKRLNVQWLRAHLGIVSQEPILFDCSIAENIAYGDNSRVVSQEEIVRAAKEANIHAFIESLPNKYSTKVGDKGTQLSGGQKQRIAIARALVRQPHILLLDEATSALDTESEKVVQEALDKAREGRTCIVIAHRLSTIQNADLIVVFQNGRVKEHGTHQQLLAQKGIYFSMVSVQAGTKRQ
- EXPERIMENT: biochemical
PARAMETER_MEASURED: IC50

Can you share its IC50? I mean this compound: N#Cc1cc2c(OCC(O)CN3CCN(C(c4ccccc4)c4ccccc4)CC3)cccc2[nH]1 (racemic)
~500 nM
